Where do these numbers come from? They come from patent US12503471B2.

# TGT: human TLR7 (Homo sapiens, UniProt Q9NYK1)
# ASSAY_EXPLANATION: HEK293-Blue-hTLR-7 cells assay
# CONDITION_CONTEXT: HEK293-Blue-hTLR7 cells, R848 stimulation, 20 hrs, SEAP reporter; read-out: HEK/hTLR7 IC50
VALUE_TYPE: IC50 (nM)

SMILES_TEXT	IC50, nM
[2H]c1ccc2c(N3C[C@@H](C)N4Cc5nc(N6CC[C@@](C)(N)C6)ccc5[C@H]4C3)ccc(C#N)c2n1	2.8
[2H]c1ccc2c(N3C[C@@H](C)N4Cc5nc(N6CCC(C)(N)CC6)ccc5[C@H]4C3)ccc(C#N)c2n1	1.1
C[C@@H]1CN(c2ccc(C#N)c3ncccc23)C[C@@H]2c3ccc(N4CCCNCC4)nc3CN12	2
[2H]c1ccc2c(N3C[C@@H](C)N4Cc5nc(N6CCC7(CC6)CNCCO7)ccc5[C@H]4C3)ccc(C#N)c2n1	1.3

[a] [2H]c1ccc2c(N3C[C@@H](C)N4Cc5nc(N6C[C@@H]7C[C@H]6CN7)ccc5[C@H]4C3)ccc(C#N)c2n1
[b] C[C@@H]1CN(c2ccc(C#N)c3ncccc23)C[C@@H]2c3ccc(N4CCNCC4)nc3CN12
[c] C[C@@H]1CN(c2ccc(C#N)n3nccc23)C[C@@H]2c3ccc(N4C[C@@H]5C[C@H]4CN5)nc3CN12
Ask | Rank the 3 compounds: largest IC50 first, smallest last. List the labels according to the requested ordering.
Reply | c, a, b

---

# TGT: human TLR7 (Homo sapiens, UniProt Q9NYK1)
# Construct: host or cells: HEK293 (HEK-Blue hTLR7)
# Sequence (Q9NYK1 27-1049): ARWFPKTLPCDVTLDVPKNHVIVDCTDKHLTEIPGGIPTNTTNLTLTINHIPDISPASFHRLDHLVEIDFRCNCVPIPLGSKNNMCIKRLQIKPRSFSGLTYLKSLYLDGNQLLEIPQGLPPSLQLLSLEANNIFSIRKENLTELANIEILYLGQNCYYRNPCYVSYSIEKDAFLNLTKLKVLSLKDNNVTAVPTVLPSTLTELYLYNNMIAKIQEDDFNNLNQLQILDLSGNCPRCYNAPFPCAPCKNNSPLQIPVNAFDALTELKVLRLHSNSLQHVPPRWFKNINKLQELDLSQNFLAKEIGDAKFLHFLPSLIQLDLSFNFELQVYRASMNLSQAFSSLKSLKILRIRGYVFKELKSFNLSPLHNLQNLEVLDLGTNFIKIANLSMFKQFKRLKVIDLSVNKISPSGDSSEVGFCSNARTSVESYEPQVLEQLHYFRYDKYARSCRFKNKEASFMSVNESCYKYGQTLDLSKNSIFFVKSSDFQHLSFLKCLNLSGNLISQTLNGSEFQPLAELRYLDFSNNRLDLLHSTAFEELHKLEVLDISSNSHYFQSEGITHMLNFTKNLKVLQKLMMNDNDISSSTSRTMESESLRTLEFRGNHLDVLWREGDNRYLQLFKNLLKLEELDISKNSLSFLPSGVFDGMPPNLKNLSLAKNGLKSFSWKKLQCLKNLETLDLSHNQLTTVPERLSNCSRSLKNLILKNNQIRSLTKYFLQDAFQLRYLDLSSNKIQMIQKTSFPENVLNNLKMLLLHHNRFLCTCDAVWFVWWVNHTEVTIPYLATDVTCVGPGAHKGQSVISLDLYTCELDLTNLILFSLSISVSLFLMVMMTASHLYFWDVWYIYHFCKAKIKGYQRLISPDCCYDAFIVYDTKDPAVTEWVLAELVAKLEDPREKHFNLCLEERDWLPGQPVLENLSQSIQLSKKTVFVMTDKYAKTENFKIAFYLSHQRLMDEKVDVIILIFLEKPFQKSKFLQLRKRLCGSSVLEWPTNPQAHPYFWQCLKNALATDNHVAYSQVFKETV
# ASSAY_EXPLANATION: HEK293-Blue-hTLR-7 cells assay
# Format: cell-based
# CONDITION_CONTEXT: HEK293-Blue-hTLR7 cells, R848 stimulation, 20 hrs, SEAP reporter; read-out: HEK/hTLR7 IC50
VALUE_TYPE: IC50 (nM)

[a] [2H]c1ccc2c(N3C[C@@H](C)N4Cc5nc(N6CC[C@H](OC)[C@@H](N)C6)ccc5[C@H]4C3)ccc(C#N)c2n1
[b] CC1(N)CCN(c2ccc3c(n2)CN2CCN(c4ccc(C#N)c5ncccc45)C[C@@H]32)CC1
[c] [2H]c1ccc2c(N3C[C@@H](C)N4Cc5nc(N6CC[C@H]7CNC[C@H]76)ccc5[C@H]4C3)ccc(C#N)c2n1
[d] C[C@@H]1CN(c2ccc(C#N)c3ncccc23)C[C@@H]2c3ccc(N4CC5CNCC(C4)O5)nc3CN12
Ask | // ranking: key=IC50, reverse=True # the answer lists labels in the order requested
Reply | b, d, a, c
